molecular target: Glucose-dependent insulinotropic receptor (Homo sapiens); assay: Intrinsic activity at human GPR119 expressed in MIN6 cells assessed as intracellular cAMP level after 45 mins by ALPHAscreen cAMP assay relative to N-(4-methanesulfonylphenyl)-5-nitro-6-[4-(phenylsulfanyl)piperidin-1-yl]pyrimidin-4-amine; type: functional, cell-based
The entries below are paired with their reported Intrinsic activity.
State the answer as a number, implicitly in %.

COMPOUND	TARGET_ENTITY	VALUE
C[S+]([O-])c1cc(F)c(NC(=O)C2=NOC3(CCN(c4nc(-c5ccccc5)no4)CC3)C2)cc1F (centres undefined)	Glucose-dependent insulinotropic receptor (Homo sapiens)	160

Lab note: `CC(C)(C)OC(=O)N1CCC2(CC1)CC(C(=O)Nc1cc(F)c(C#N)cc1F)=NO2` gave Intrinsic activity of 170

Lab note: `N#Cc1cc(F)c(NC(=O)C2=NOC3(CCN(c4nc(-c5ccccc5)no4)CC3)C2)cc1F` gave Intrinsic activity of 173

Lab note: `CC(C)(C)OC(=O)N1CCC2(CCN(C(=O)Nc3ccc(S(C)(=O)=O)cc3Br)CC2)CC1` gave Intrinsic activity of 165

----------
target: Glucose-dependent insulinotropic receptor (Homo sapiens, UniProt Q8TDV5); assay: Agonist activity at human GPR119 expressed in MIN6 cells assessed as intracellular cAMP level after 45 mins by ALPHAscreen cAMP assay
Sequence (Q8TDV5 whole entry): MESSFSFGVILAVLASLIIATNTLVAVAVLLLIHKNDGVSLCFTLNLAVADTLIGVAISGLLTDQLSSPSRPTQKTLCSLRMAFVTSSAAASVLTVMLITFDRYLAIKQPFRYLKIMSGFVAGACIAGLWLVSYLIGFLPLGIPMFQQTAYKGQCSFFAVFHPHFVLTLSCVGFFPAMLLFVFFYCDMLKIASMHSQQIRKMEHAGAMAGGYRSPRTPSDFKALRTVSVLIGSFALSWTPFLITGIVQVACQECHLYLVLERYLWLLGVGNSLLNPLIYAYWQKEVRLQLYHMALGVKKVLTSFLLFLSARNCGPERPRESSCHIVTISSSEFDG
The entries below are paired with their reported EC50.
State the answer as a number, implicitly in nM.

Illustrative cases are given below, each with its answer.
MOLECULE	VALUE
CC(C)(C)OC(=O)N1CCC2(CCN(C(=O)Nc3ccc(S(C)(=O)=O)cc3Br)CC2)CC1	800
C[S+]([O-])c1cc(F)c(NC(=O)C2=NOC3(CCN(c4nc(-c5ccccc5)no4)CC3)C2)cc1F (centres undefined)	21
N#Cc1cc(F)c(NC(=O)C2=NOC3(CCN(c4nc(-c5ccccc5)no4)CC3)C2)cc1F	30

Lab note: `CC(C)(C)OC(=O)N1CCC2(CC1)CC(C(=O)Nc1cc(F)c(C#N)cc1F)=NO2` gave EC50 of 93
